# system tested: Endothelin-1 receptor (Rattus norvegicus, UniProt P26684)
# Sequence (P26684 whole entry): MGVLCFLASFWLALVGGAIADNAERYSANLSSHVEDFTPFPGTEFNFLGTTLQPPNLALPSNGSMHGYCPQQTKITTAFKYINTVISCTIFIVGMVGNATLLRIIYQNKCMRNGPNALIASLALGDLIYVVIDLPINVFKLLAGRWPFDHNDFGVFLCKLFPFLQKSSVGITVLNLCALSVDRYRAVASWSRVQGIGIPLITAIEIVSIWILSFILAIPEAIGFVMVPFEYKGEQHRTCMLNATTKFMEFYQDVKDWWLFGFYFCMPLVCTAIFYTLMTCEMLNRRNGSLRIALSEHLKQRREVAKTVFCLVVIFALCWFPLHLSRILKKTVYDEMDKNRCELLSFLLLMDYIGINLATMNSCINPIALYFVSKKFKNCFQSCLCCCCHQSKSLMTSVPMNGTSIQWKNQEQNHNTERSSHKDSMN
# protocol: In vitro inhibition of [125I]ET1 binding to rat A10 cell Endothelin A receptor.
pIC50: −log10 of the molar value.
Outcome label depends on pIC50 relative to 7: at/above gives 1.0, below gives 0.0.

See these solved cases before continuing.
>>> print(df.to_string())
                                   molecule  class_assignment
0  Cc1ccccc1[C@@H](CCC(=O)O)Oc1cc(OCc2cccnc2)ccc1C#N               1.0
1  Cc1ccccc1C(CCC(=O)O)Oc1cccc(OCc2ccsc2)c1 (configuration not stated)               0.0
2  Cc1ccccc1C(CCC(=O)O)Oc1cc(OCc2ccsc2)ccc1C(N)=O (configuration not stated)               1.0

# input Threshold query (pIC50 >= 7) on Cc1ccccc1C(CCC(=O)O)Oc1cc(OCc2ccsc2)ccc1C(=O)O (configuration not stated)
# output 0.0
